All values here come from a melting point compilation (Tetko et al.; mined from patent text by program, amines drawn as free bases though some values may be those of a salt).

Give melting point for every item shown.

Look up melting point: `C#CCOc1ccc(CC(=O)O)cc1[N+](=O)[O-]`
135 to 137 °C

Now try `O=C(O)c1ccc(S(=O)(=O)Oc2ccc(-c3ccc(-c4c(Cc5ccccc5)sc5ccccc45)cc3)cc2Br)cc1O` .
117 to 119 °C

Now try `Cc1cc(C)nc(-c2ncc([N+](=O)[O-])n2C)n1` .
148 to 150 °C

Now try O=C(CC1(O)C(=O)N(Cc2ccc(Cl)cc2)c2ccccc21)C1CC1 (centres undefined) .
102 to 103 °C

Now try `Cc1c(O)c(=O)ccn1CCCCCO` .
136 to 138 °C

Now try CC1=C(c2ccncc2)C(C)CC(=O)N1 (centres undefined) .
184 to 186 °C

Now try `O=[N+]([O-])c1ccc2c(c1)N(c1nnn[nH]1)CC2` .
262 to 270 °C

Now try `O=C(N[C@H]1CCCNC1=O)c1c(F)cccc1F` .
190 to 194 °C

Now try `CCCCc1nc(SC)c(C(=O)O)n1Cc1ccc(-c2nc3ccccn3c2-c2nnn[nH]2)cc1` .
160 °C

Now try `CN1c2ccccc2Sc2cn(C)c(=O)c(C#N)c21` .
236 to 237 °C

Now try CCN(CC)C(=O)/C=C(\C)c1ccc(OC(C)c2ccccc2)c(OC(C)(C)C(=O)O)c1 (centres undefined) .
117 to 119 °C

Now try `O=C(c1cccs1)C1CCN(Cc2ccccc2)CC1` .
83.9 °C

Now try `CCCCOCCOc1ccc(-c2ccc3c(c2)C=C(C(=O)Nc2ccc(O)cc2)CCN3CC(C)C)cc1` .
155 to 157 °C

Now try `CN1CC(=O)Nc2ccc(Cl)cc2C1=O` .
> 250 °C

Now try `CCOC(=O)C(C#N)=Cc1cc([N+](=O)[O-])ccc1Cl` .
83 to 85 °C

Now try `N#CC(=CNC1CC1)C(=O)c1cc(F)c(Cl)cc1Cl` .
94 to 95 °C

Now try O=C(NS(=O)(=O)c1ccc(Cl)cc1)N1CC(c2ccccc2)C(c2ccc(Cl)cc2)=N1 (centres undefined) .
211 to 214 °C

Now try `CC(C)(C)OC(=O)[C@H](CSSC[C@H](NC(=O)OCc1ccccc1)C(=O)OC(C)(C)C)NC(=O)OCc1ccccc1` .
77 to 78 °C

Now try `Cc1c(-n2ccnc2)n(Cc2ccc(C(=O)O)cc2)c2ccccc12` .
221 to 225 °C

Now try CCn1cc(C(=O)O)c(=O)c2cc(F)c(N3CCNC(Cn4cccc4)C3)cc21 (centres undefined) .
185 to 188 °C

Now try Cn1nc(C(O)c2ccccn2)nc1NCCCOc1cccc(CN2CCCCC2)c1 (centres undefined) .
152 to 154 °C

Now try CCC(O)(c1cccc(NS(=O)(=O)CC)c1)c1c[nH]cn1 (centres undefined) .
120 to 124 °C

Now try CC(C)N1CCN(C(=O)COC2c3ccccc3C(=O)N2c2ccc3ccc(Cl)nc3n2)CC1 (centres undefined) .
186 °C

Now try `CCOc1ccnc2[nH]cc(C(C)=O)c12` .
> 210 °C

Now try `COc1ccccc1C(=C1CN(C(c2ccccc2)c2ccccc2)C1)S(C)(=O)=O` .
204 °C

Now try `CCCCNc1c(C(=O)OCC)cnc2c1cnn2CC` .
82 to 83 °C

Now try CN1CCNC(c2ccccc2)c2cc(Cl)ccc21 (centres undefined) .
66 to 68 °C

Now try CC1OP(=O)(O)c2ccccc21 (centres undefined) .
148 to 149 °C

Now try CCS(=O)(=O)c1ccc(C(CC2CCCC2)C(=O)Nc2ccccn2)cc1 (centres undefined) .
144 to 145 °C

Now try `CC1(C)CCC(C)(C)c2cc(-c3cc(-c4ccc(C(=O)NO)cc4)ccc3-c3ccccc3)ccc21` .
105 to 108 °C

Now try `ClCSc1ccccc1Br` .
28 to 30 °C

Now try `CN1C(=O)C(C)(C)C(=O)N(C)c2ccccc21` .
159 to 160 °C

Now try CC1CN(c2c(F)cc3c(=O)c(C(=O)O)cn(C4CC4)c3c2C#N)CCN1 (centres undefined) .
> 300 °C

Now try Cc1ccc(S(=O)(=O)N2CC(NC(=O)c3ccccc3)CC2C(=O)O)cc1 (centres undefined) .
120 to 125 °C
